# assay_remarks: Nitroreductase enzyme assay with CB 1954 as substrate (HPLC)
# Format: biochemical
# test_conditions: Table 6, 37° C.; read-out: Km CB 1954
Answer each item with its documented Km.
Answers are plain numbers, in µM.

Below are worked cases with known answers.
C. jejuni NfnB: nitroreductase from Campylobacter jejuni, SEQ ID NO: 23 (protein, listed as Campylobacter jejuni) MKKELEIFSTRYSCRNFKNEKLKKEDLNSILEIARLSPSSLGLEPWKFIVVQDEKRKEELSKICNQQKHVKDCAALIIIISRLDFLDYFEEKLRKRDMSETEMQKRLDTYMPFLKSLNQEQKISYAREQAHIALASILYSANALNIASCTIGGFDKEKLDSYLSLDIQKERSSLVVALGYCNDKKNPQKNRFSFDEVVKFI | 217
P. gingivalis YwrO: nitroreductase from Porphyromonas gingivalis, SEQ ID NO: 25 (protein, listed as Porphyromonas gingivalis) MKKTLVIVVHPDLTKSVINKAWAKAIEGAATIHHLYEQYPNGQIDLAHEQALLEAHDRIVFQFPLYWYAAPYLLKKWMDEVFTEGWAYGAGGDKMEGKEICAAVSCGSPKSAFAEGAQQCHTLRSYLNVFDGIAAFLRARFTGYHACYDSYNPRLPEMLPANCEAYLRFIKGE | 1200
YodC: nitroreductase from B. subtilis, SEQ ID NO: 12 (coded for by SEQ ID NO: 11) (protein, listed as Bacillus subtilis) MTNTLDVLKARASVKEYDTNAPISKEELTELLDLATKAPSAWNLQHWHFTVFHSDESKAELLPVAYNQKQIVESSAVVAILGDLKANENGEEVYAELASQGYITDEIKQTLLGQINGAYQSEQFARDSAFLNASLAAMQLMIAAKAKGYDTCAIGGFNKEQFQKQFDISERYVPVMLISIGKAVKPAHQSNRLPLSKVSTWL | 552

Now consider the entry below.
Km recorded for this molecule, YdgI (Bacillus subtilis subsp. subtilis str. 168) (protein, made in house; host or cells: E. coli (pMTL1015; HMS174)) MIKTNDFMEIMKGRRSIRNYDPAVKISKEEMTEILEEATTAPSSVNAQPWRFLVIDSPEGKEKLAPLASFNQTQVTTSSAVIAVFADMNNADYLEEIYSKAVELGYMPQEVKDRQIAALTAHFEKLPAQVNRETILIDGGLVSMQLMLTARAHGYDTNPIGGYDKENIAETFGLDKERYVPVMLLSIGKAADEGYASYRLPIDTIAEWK , is 3860
